# targetOfAssay: T1, human PRLR on cells (endogenous on T47D, T47D#11, MCF7); introduced in HEK293/hPRLR/STAT5-Luc, 293/hPRLR, … (human, UniProt P16471 25-622)
# T1 construct: no tag is stated for these lines; also called prolactin receptor
# T1 sequence: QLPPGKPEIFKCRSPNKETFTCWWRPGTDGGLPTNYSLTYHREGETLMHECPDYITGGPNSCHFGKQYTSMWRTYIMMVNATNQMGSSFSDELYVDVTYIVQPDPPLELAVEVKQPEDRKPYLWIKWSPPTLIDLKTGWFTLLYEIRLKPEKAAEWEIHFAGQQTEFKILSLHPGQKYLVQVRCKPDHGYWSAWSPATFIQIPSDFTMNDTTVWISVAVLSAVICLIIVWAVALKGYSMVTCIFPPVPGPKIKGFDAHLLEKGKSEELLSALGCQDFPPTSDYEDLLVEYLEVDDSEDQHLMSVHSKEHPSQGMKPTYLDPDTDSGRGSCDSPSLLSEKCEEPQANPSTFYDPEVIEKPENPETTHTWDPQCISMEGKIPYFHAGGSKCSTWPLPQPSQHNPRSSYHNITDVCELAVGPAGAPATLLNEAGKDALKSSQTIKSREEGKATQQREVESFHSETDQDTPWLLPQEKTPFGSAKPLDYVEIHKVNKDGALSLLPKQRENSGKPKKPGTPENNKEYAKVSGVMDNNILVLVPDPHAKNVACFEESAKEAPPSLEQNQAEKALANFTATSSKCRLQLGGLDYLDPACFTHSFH
# assayOverview: imaging of alexa488 intensity on T47D cells
parameter: % Total Binding relative to Control I

*Q* Param item = H1H6790P (antibody, human IgG1, V domains shown, human IgG1 Fc (H1H)) VH: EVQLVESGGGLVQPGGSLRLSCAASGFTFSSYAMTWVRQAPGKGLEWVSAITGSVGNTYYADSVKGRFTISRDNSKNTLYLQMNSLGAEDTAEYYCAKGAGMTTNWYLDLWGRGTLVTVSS VL: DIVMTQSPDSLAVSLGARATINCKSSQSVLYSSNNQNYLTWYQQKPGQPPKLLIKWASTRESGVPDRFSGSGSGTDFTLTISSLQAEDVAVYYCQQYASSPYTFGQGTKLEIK ; retrieve measured % Total Binding relative to Control I.
*A* 123%

*Q* Param item = H1H6958N2 (antibody, human IgG1, V domains shown, also called H2M6958N2) VH: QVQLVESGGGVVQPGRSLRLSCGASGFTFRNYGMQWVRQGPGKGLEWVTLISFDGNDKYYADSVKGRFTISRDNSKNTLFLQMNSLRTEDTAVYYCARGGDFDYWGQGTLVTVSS VL: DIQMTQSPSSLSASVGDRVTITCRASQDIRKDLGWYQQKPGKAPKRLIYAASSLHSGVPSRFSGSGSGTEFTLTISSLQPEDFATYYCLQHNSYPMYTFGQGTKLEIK ; retrieve measured % Total Binding relative to Control I.
*A* 162%

*Q* Param item = H1H6765P (antibody, human IgG1, V domains shown, human IgG1 Fc (H1H)) VH: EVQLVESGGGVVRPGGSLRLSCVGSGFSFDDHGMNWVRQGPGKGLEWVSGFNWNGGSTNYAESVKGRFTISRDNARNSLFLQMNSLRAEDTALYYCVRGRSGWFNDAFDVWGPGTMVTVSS VL: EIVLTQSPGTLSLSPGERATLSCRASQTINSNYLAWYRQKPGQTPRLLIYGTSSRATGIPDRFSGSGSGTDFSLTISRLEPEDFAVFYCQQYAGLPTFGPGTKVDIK ; retrieve measured % Total Binding relative to Control I.
*A* 191%
